- procedure text: Toxicity liver stage against HepG2, at 10uM
- Type: cell-based
- Parameters: test concentration 10 uM, cell line HepG2-A16-CD81EGFP
- condition parameters: human, HepG2-A16-CD81EGFP cells; read-out: INHIBITION
attribute measured: cytotoxicity at 10 µM (%)
Note: unit % is implicit; provide only the numeric part.

Cc1ccccc1C(=O)N1CCO[C@H]2[C@H](OCCN(C)C)CC[C@@H]21 = -2.95

Please supply the value of reported cytotoxicity at 10 µM for the item Cn1ncc2c(N3CCC(CC(=O)N4CCCC4)CC3)ncnc21
4.19

Please supply the value of reported cytotoxicity at 10 µM for the item CCN(Cc1ccc2c(c1)OCO2)C(=O)NCc1nc(C)cs1
7.47

Please supply the value of reported cytotoxicity at 10 µM for the item Cc1oncc1C(=O)N1CCCc2c(C#N)nn(C)c2C1
-134

Please supply the value of reported cytotoxicity at 10 µM for the item CC(=O)N1C[C@H]2CNC[C@@]2(C(=O)NCCOc2ccccc2F)C1
2.8
